In this section, each of the molecules is paired with its reported pIC50.
# test_protocol: Cytotoxicity, MTT method
# condition_details: mouse
Conceptually, pIC50 converts a concentration in mol/L into minus its log10.

Examples from the recorded data:
- molecule: "CCCC(=O)O[C@H]1c2cc(C)cc(O)c2C(=O)C2=C(O)[C@H]3C=C[C@]21Cc1cc(O)c2c(c13)O[C@@]1(C(=O)OC)C(=C(O)[C@@H](O)C[C@@H]1O)C2=O"
  pIC50: 4.87
- molecule: "CCCC(=O)O[C@H]1c2cc(C)cc(O)c2C(=O)C2=C(O)[C@H]3C=C[C@]21Cc1cc2c(c(O)c13)C(=O)C1=C(O)CC[C@H](O)[C@@]1(C(=O)OC)O2"
  pIC50: 5.95

Could you now look at the following molecule, please?
query: Bench note: what pIC50 did COC(=O)[C@]12Oc3c(c(O)cc4c3[C@@H]3C=C[C@]5(C4)C(=C3O)C(=O)c3c(O)cc(C)cc3[C@@H]5OC(C)=O)C(=O)C1=C(O)CC[C@@H]2O show?
result: 5.95

* * *

# test_protocol: Cytotoxicity, MTT method
# condition_details: human, A431 squamous cancer cells
measured_quantity: pIC50
Conceptually, pIC50 converts a concentration in mol/L into minus its log10.

- molecule: "COC(=O)[C@]12Oc3c(c(O)cc4c3[C@@H]3C=C[C@]5(C4)C(=C(O)c4c(O)cc(C)cc4[C@@H]5O)C3=O)C(=O)C1=C(O)CC[C@@H]2O"
  pIC50: 6.80

Could you now look at the following compound, please?
query: Bench note: what pIC50 did CCCC(=O)O[C@H]1c2cc(C)cc(O)c2C(=O)C2=C(O)[C@H]3C=C[C@]21Cc1cc(O)c2c(c13)O[C@]1(C(=O)OC)C(=C(O)CC[C@@H]1O)C2=O show?
result: 7.30

* * *

# test_protocol: Cytotoxicity, MTT method
# condition_details: human, A431 squamous cancer cells
measured_quantity: pIC50
Conceptually, pIC50 converts a concentration in mol/L into minus its log10.

- compound: "CCCC(=O)O[C@H]1c2cc(C)cc(O)c2C(=O)C2=C(O)[C@H]3C=C[C@]21Cc1cc(O)c2c(c13)O[C@@]1(C(=O)OC)C(=C(O)CC[C@@H]1O)C2=O [Compound 2, Xanthoquinodin B10]"
  pIC50: 7.22
- compound: "CCCC(=O)O[C@H]1c2cc(C)cc(O)c2C(=O)C2=C(O)[C@H]3C=C[C@]21Cc1cc(O)c2c(c13)O[C@@](C(=O)OC)([C@@H](O)CCC(=O)O)CC2=O [Compound 7, Xanthoquinodin B15]"
  pIC50: 5.54

Could you now look at the following compound, please?
query: Bench note: what pIC50 did CCCC(=O)O[C@H]1c2cc(C)cc(O)c2C(=O)C2=C(O)[C@H]3C=C[C@]21Cc1cc(O)c2c(c13)O[C@@](C(=O)OC)([C@@H]1CCC(=O)O1)CC2=O [Compound 6, Xanthoquinodin B14] show?
result: 5.51
